meta.source: paper PMC8813930

Target: BLM-dH (Homo sapiens, UniProt P54132 642-1191)
Sequence (P54132 642-1191): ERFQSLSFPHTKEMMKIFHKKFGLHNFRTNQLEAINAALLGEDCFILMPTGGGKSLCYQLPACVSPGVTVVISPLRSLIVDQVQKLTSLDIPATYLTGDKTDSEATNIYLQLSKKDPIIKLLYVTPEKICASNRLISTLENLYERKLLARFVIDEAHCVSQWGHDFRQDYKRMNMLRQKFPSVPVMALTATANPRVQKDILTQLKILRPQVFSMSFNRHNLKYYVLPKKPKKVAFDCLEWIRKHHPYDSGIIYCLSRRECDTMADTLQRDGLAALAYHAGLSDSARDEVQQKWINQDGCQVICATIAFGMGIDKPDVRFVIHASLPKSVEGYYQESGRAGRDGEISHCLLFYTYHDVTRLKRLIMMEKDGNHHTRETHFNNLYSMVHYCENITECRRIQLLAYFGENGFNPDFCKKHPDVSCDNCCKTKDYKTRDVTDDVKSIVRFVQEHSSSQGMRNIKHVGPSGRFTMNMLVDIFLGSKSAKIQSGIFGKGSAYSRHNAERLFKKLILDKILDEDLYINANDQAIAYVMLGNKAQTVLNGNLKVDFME
Experiment: fluorescence anisotropy; no ATP; 5 mM MgCl2; 50 mM Tris-HCl pH 7.5, 50 mM NaCl, 1 mM DTT, 5 mM MgCl2, 50 µg/mL BSA, 25 °C; 10 nM labeled DNA in direct titrations
Settings: protein: recombinant; label: 3'-fluorescein; single strand
Recorded metric: pKd
Please keep in mind that pKd is minus log10 of the molar concentration; only the number is needed.

Query: Item ss54-FLU (ssDNA) DNA: TCCTTTTGATAAGAGGTCATTTTTGCGGATGGCTTAGAGCTTAATTGCGCAACG has what recorded pKd?
Reply: 7.21
